Test system: PC15
Assay: qHTS profiling for inhibitors of Plasmodium falciparum proliferation (AID 504749); further: nearly all actives have a fitted effect of over 60% in size
Conditions: P. falciparum in erythrocytes, SYBR Green DNA, 72 h; series mostly up to 28.7 µM
Inconclusive results are not listed. Calls of active or inactive are those of the source. The call rests on the fitted dose curve; in most records, active means well fitted inhibition curve with a large enough effect; inconclusive means small, poorly fitted or top-dose-only effect; inactive means flat fitted curve, though single readings scatter.
Just give me one of these, please: active, inactive

Solved cases (4 shown):
C[C@]12O[C@H](C[C@]1(O)CO)n1c3ccccc3c3c4c(c5c6ccccc6n2c5c31)CNC4=O    active
CC1=C(/C=C/C(C)=C/C=C/C(C)=C/C=C/C=C(C)/C=C/C=C(C)/C=C/C2=C(C)C(=O)CCC2(C)C)C(C)(C)CCC1=O    inactive
COC(F)(F)C(Cl)Cl    inactive
Nc1c(N=Nc2ccc(-c3ccc(N=Nc4cc(S(=O)(=O)O)c5ccccc5c4N)cc3)cc2)cc(S(=O)(=O)O)c2ccccc12    inactive

Call for entry `CCOC(C)=O` : inactive

----------
Experiment: Primary fluorescence-based thiol-reactive (MSTI) qHTS assay for identification of artifact compounds. (AID 1845221); further: nearly all actives have a fitted effect of over 65% in size
Conditions: MSTI thiol-reactivity probe, 1 h; series mostly up to 53.8 µM
Records with an inconclusive call do not appear. The source made the active and inactive calls. Calls come from the whole dose curve; as a rule, active = well fitted inhibition curve with a large enough effect; inconclusive = small, poorly fitted or top-dose-only effect; inactive = no such curve, though single readings can be large or run the other way.
Just give me one of these, please: active, inactive

Solved cases (7 shown):
CNC(=O)c1ccc2cc([C@@]3(O)CCn4cncc43)ccc2c1    inactive
CC(NCc1ccc(OCc2cccc(F)c2)cc1)C(N)=O (stereo not drawn)    inactive
CC12CCC3c4ccc(O)cc4CCC3C1CCC2OC1OC(C(=O)O)C(O)C(O)C1O (stereo not drawn)    inactive
COC(=O)C1=COC(OC2OC(CO)C(O)C(O)C2O)C2C1CC(OC(=O)C(O)CC(=O)O)C2C (stereo not drawn)    active
C=C1CCC2C(C)(CO[C@@H]3O[C@H](CO)[C@@H](O)[C@H](O)[C@H]3O)C(O)CCC2(C)C1C(=O)CC1=CCOC1=O (stereo partly drawn)    active
CCC(=O)O[C@]1(C(=O)CCl)[C@@H](C)C[C@H]2[C@@H]3C[C@H](F)C4=CC(=O)C=C[C@]4(C)[C@@]3(F)[C@@H](O)C[C@@]21C    inactive
CC1CCC2C(C)(C)C(O)CCC2(C)C12Cc1c(O)cc3c(c1O2)CN(C(CCC(N)=O)C(=O)O)C3=O (stereo not drawn)    inactive

Now for another entry.
Call for entry CCC(CCO[C@@H]1O[C@H](CO[C@H]2OC[C@](O)(CO)[C@H]2O)[C@@H](O)[C@H](O)[C@H]1O)C(C)(C)O (stereo partly drawn) : inactive

----------
Assay: Drug repurposing screens with cells derived from glioblastoma tumor samples (AID 1345199); further: on the % scale 0 is the no-effect control and ±100 the full control effect; nearly all actives have a fitted effect of over 40% in size
Details: GBM patient neurospheres viability, ATP luminescence, 48 h; at 46.1 µM (top of the series); tumour line C
Inconclusive results are not listed.
PROPERTY: activity, negative = cell killing (%)
Form entry: value (%) — number only.

Returns the measured activity, negative = cell killing for the input compound. Input: Nc1c(Br)cc(Br)cc1CNC1CCC(O)CC1 (stereo not given) -10.6

Returns the measured activity, negative = cell killing for the input compound. Input: `CCOC(=O)C1=C(C)NC(C)=C(C(=O)OCC)C1c1ccccc1C=CC(=O)OC(C)(C)C` 2.25

Returns the measured activity, negative = cell killing for the input compound. Input: CN1Cc2c(N)cccc2C(c2ccccc2)C1 (stereo not given) -16.4
